Parameter koff: see the listing below.
Target: SARS-COV-2 RBD extracellular domain expressed with a C-terminal myc-myc-hexahistidine tag (SARS-CoV-2)
Assay: SPR (Biacore), mAb captured by anti-human Fc, RBD-mmH in solution, 25 C
Respond numerically; units are s⁻¹ and should not be typed.

Recorded results for 8 binders are shown here.
>  <binder>
mAb14312 (antibody, V domains shown) VH: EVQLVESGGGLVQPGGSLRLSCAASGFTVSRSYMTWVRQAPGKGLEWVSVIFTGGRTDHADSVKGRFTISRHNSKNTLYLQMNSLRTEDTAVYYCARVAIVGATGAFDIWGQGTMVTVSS VL: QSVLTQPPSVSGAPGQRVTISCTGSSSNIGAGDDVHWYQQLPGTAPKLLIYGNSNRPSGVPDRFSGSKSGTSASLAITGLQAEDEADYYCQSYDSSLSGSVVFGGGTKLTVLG

>  <reportedEndpoint>
koff

>  <observedResult>
0.000929

$$$$
>  <binder>
mAb15164 (antibody, V domains shown) VH: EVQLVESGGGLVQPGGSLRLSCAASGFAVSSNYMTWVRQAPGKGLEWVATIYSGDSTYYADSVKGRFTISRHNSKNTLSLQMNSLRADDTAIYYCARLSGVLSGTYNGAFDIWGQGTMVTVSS VL: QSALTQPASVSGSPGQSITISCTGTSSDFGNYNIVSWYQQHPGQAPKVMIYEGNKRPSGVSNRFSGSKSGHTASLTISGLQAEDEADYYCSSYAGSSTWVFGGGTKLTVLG

>  <reportedEndpoint>
koff

>  <observedResult>
0.000349

$$$$
>  <binder>
mAb14258 (antibody, V domains shown) VH: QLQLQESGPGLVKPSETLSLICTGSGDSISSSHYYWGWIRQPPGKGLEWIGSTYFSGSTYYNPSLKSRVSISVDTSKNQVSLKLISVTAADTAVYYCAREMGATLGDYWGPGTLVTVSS VL: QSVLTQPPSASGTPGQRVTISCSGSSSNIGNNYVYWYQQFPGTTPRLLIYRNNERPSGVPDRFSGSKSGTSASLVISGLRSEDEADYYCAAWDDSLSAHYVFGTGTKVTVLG

>  <reportedEndpoint>
koff

>  <observedResult>
0.00161

$$$$
>  <binder>
mAb14315 (antibody, V domains shown) VH: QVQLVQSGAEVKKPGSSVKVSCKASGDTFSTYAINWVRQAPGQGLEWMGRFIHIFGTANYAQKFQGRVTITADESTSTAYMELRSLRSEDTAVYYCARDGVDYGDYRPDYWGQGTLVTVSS VL: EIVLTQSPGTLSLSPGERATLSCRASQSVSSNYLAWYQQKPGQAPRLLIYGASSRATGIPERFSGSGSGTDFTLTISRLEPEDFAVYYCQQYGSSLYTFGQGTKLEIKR

>  <reportedEndpoint>
koff

>  <observedResult>
0.00102

$$$$
>  <binder>
mAb15151 (antibody, V domains shown) VH: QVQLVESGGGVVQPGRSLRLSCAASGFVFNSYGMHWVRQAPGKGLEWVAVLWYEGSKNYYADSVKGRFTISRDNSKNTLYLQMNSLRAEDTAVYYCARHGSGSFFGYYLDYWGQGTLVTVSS VL: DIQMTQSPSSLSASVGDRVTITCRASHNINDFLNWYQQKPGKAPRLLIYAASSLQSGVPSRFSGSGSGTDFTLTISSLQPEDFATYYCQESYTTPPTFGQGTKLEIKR

>  <reportedEndpoint>
koff

>  <observedResult>
0.000778

$$$$
>  <binder>
mAb15166 (antibody, V domains shown) VH: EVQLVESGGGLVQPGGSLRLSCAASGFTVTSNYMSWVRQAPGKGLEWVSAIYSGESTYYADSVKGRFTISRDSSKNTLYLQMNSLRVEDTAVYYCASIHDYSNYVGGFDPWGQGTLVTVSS VL: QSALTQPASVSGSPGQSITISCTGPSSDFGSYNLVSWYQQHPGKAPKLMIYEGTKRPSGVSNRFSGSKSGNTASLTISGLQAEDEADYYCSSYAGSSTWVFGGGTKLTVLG

>  <reportedEndpoint>
koff

>  <observedResult>
0.00535

$$$$
>  <binder>
mAb15158 (antibody, V domains shown) VH: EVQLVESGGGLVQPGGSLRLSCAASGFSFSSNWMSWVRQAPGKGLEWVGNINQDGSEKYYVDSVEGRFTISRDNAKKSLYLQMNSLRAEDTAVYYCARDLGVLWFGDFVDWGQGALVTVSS VL: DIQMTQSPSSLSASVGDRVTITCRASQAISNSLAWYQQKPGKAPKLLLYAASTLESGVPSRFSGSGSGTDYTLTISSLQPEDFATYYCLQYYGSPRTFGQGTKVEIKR

>  <reportedEndpoint>
koff

>  <observedResult>
8.12e-05

$$$$
>  <binder>
mAb14289 (antibody, V domains shown) VH: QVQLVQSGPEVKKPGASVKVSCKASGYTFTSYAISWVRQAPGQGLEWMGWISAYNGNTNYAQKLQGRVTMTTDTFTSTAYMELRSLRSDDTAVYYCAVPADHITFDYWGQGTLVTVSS VL: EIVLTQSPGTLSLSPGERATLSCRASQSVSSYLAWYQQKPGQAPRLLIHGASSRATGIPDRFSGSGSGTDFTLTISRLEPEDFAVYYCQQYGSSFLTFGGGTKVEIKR

>  <reportedEndpoint>
koff

>  <observedResult>
0.00158

$$$$

Request the reported koff associated with mAb15159 (antibody, V domains shown) VH: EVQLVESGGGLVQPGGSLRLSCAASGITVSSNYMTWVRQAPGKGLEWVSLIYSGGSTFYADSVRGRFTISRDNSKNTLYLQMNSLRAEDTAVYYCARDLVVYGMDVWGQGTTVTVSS VL: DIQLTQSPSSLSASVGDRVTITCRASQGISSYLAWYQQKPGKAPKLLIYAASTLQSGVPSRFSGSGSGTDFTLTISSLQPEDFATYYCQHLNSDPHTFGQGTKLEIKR
0.00013

# query: koff of entry mAb14281 (antibody, V domains shown) VH: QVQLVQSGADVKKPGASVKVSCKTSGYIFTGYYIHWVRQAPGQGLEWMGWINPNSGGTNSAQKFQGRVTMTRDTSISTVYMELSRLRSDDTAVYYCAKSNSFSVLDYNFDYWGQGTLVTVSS VL: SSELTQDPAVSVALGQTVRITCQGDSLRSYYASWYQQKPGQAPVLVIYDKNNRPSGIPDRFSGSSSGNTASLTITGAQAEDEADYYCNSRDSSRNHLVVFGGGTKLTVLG
0.00554
